The entries below are paired with their reported pEC50.
tested on: T. cruzi amastigotes; test: T. cruzi; format: cell-based, Trypanosoma cruzi; details: read-out: EC50 T. cruzi; Table 3, general structure III
pEC50: −log10 of the molar value.
measure: pEC50

compound | measure | measured result
Cc1ccccc1-c1cc(NCc2cncn2Cc2ccc(-c3ccccc3)cc2)ccc1-c1nc2ccccc2s1 [Compound 32g] | pEC50 | 7.38
Cc1ccccc1-c1ccc(Cn2cncc2CNc2ccc(-c3nc4ccccc4s3)c(-c3ccccc3)c2)cc1 [Compound 32f] | pEC50 | 6.74
CC(C)c1ccc(Cn2cncc2CNc2ccc(-c3nc4ccccc4s3)c(-c3ccccc3)c2)cc1 [Compound 32a] | pEC50 | 6.07
Cc1cccc(-c2cc(NCc3cncn3Cc3ccc(-c4ccccc4)cc3)ccc2-c2nc3ccccc3s2)c1C [Compound 32h] | pEC50 | 7.00
Fc1ccc(Cn2cncc2CNc2ccc(-c3nc4ccccc4s3)c(-c3ccccc3)c2)c(F)c1 [Compound 32d] | pEC50 | 6.20
CCc1ccc(Cn2cncc2CNc2ccc(-c3nc4ccccc4s3)c(-c3ccccc3)c2)cc1 [Compound 32b] | pEC50 | 6.72

Data credit: paper PMC2771698
